- System: Danio rerio Tg(wt1b:EGFP) embryo, pronephros
- test details: glomerular width (mean of left and right), fold change vs DMSO control; higher = wider glomerulus
- test conditions: 25 µM; exposure: 24-48 hpf
Counter-ions that a name gives are not always drawn.
quantity name: glomerular width
No unit in the answer, please; the number alone is enough.

Value lookup for glomerular width; key = NC(=O)c1cnccn1 [Pyrazinamide]
1.04

Value lookup for glomerular width; key = Cc1cc(=O)n(-c2ccccc2)n1C [Antipyrine]
0.98

Value lookup for glomerular width; key = CC1=Nc2ccc(Cl)cc2S(=O)(=O)N1 [Diazoxide]
1.03

Value lookup for glomerular width; key = NCCc1ccc(O)c(O)c1 [Dopamine hydrochloride]
1.05

Value lookup for glomerular width; key = CC(C)Cn1cnc2c(N)nc3ccccc3c21
0.944

Value lookup for glomerular width; key = CC(=O)O[C@]1(C(C)=O)CC[C@H]2[C@@H]3C=C(C)C4=CC(=O)CC[C@]4(C)[C@H]3CC[C@@]21C [Megestrol acetate]
0.864

Value lookup for glomerular width; key = COc1cc(C(=O)NS(=O)(=O)c2ccccc2C)ccc1Cc1cn(C)c2ccc(NC(=O)OC3CCCC3)cc12
0.969

Value lookup for glomerular width; key = CC(C)n1c(/C=C/C(O)CC(O)CC(=O)O)c(-c2ccc(F)cc2)c2ccccc21 (configuration not stated) [Fluvastatin sodium salt]
0.609

Value lookup for glomerular width; key = C[N+](C)(C)CCCCCC[N+](C)(C)C [Hexamethonium dibromide dihydrate]
1.09

Value lookup for glomerular width; key = O=C1CC[C@@H](C(=O)N2CSC[C@H]2C(=O)O)N1
1.05

Value lookup for glomerular width; key = CC(CN(C)C)CN1c2ccccc2Sc2ccccc21 (configuration not stated) [Trimeprazine tartrate]
0.988

Value lookup for glomerular width; key = C[C@]12CC[C@@H]3c4ccc(O)cc4C[C@@H](CCCCCCCCC[S+]([O-])CCCC(F)(F)C(F)(F)F)[C@H]3[C@@H]1CC[C@@H]2O (some centres not stated)
0.963

Value lookup for glomerular width; key = CN[C@@H]1[C@@H](O)[C@@H](O[C@@H]2[C@@H](O)[C@H](O[C@H]3OC(CN)=CC[C@H]3N)[C@@H](N)C[C@H]2N)OC[C@]1(C)O [Sisomicin sulfate]
1.02

Value lookup for glomerular width; key = CCCCNc1c(C(=O)OCC)c(C)nc2c1cnn2CC [Tracazolate hydrochloride]
0.929

Value lookup for glomerular width; key = Clc1ccccc1CN1CCc2sccc2C1 [Ticlopidine hydrochloride]
1.09

Value lookup for glomerular width; key = CC(=O)[C@H]1CC[C@H]2[C@@H]3C[C@H](C)C4=CC(=O)CC[C@]4(C)[C@H]3[C@@H](O)C[C@]12C
1.17

Value lookup for glomerular width; key = CCc1cccc2c3c([nH]c12)C(CC)(CC(=O)O)OCC3 (configuration not stated)
0.954
